outcome-measure: melting point

{"compound": "Cc1c(-c2ccc(OC3CCCC3)cc2)n(Cc2ccc(OCCBr)cc2)c2ccc(OCc3ccccc3)cc12", "obs-value": "110 to 112 °C"}
{"compound": "CCNc1nc(OC)c(C(=O)NC2CCN(C3CCCCC3)C2)nc1Cl (stereo not given)", "obs-value": "171 to 173 °C"}
{"compound": "O=C1NCCC[C@@H]1NS(=O)(=O)c1cc(F)cc(F)c1", "obs-value": "170 to 174 °C"}
{"compound": "Nc1cc(=O)n(Cc2ccc(Cl)c(Br)c2)[nH]1", "obs-value": "171 to 172 °C"}
{"compound": "COc1ccc(C2CCN(C(=O)C(=O)NO)CC2)cc1OC1CCCC1", "obs-value": "124 °C"}

====

outcome-measure: melting point

{"molecule": "CC1(c2cc(NC(=O)c3ccc(Cl)cn3)ccc2F)N=C(N)COCC1(F)F (centres undefined)", "obs-value": "190 to 193 °C"}
{"molecule": "CCOC(=O)c1cn(C2CC2)c2c(C)c(F)c(F)cc2c1=O", "obs-value": "220 to 221 °C"}
{"molecule": "O=C1CC(c2ccco2)Cc2occ(C(F)(F)F)c21 (centres undefined)", "obs-value": "94 to 95 °C"}
{"molecule": "COC(=O)c1ccc(S(C)(=O)=O)c(C2=NOC(C)C2)c1Cl (centres undefined)", "obs-value": "130 to 135 °C"}

====

outcome-measure: melting point

{"molecule": "O=C(Nc1ccc(OCCN2CCOCC2)c2ccccc12)c1cc(F)cc(N2CCCCC2)c1", "obs-value": "150 to 151 °C"}
{"molecule": "CNc1nc(CO)ccc1C", "obs-value": "87 °C"}
{"molecule": "COC1=CC2(C)CCc3c(OC)ccc(OC)c3C2=CC1=O (stereo not given)", "obs-value": "184 to 186 °C"}
{"molecule": "COC(=O)CC1Sc2sc(S(N)(=O)=O)cc2NC1=O (stereo not given)", "obs-value": "195 to 197 °C"}
{"molecule": "NC(=O)C1CCc2cc(C(=O)c3ccccc3)c(O)cc21 (stereo not given)", "obs-value": "205 to 207 °C"}

====

Each entry below lists one item and its recorded melting point value.

{"molecule": "COc1ccc(S(=O)(=O)n2ccc3ccnc(-c4ccco4)c32)cc1", "melting point": "127 to 130 °C"}
{"molecule": "COC(=O)c1cccc(C(=O)NC(Nc2c(Nc3cccnc3)c(=O)c2=O)C(C)(C)C)c1 (centres undefined)", "melting point": "228 to 229 °C"}
{"molecule": "CCC(=O)N(C)c1ccc(C(=O)C=CN(C)C)cc1", "melting point": "76 to 78 °C"}
{"molecule": "Nc1nc(-c2cc(Cl)ccc2Cl)nc(N2CCCC2)n1", "melting point": "191 to 193 °C"}

====

{"compound-smiles": "COc1ccc(NC(=O)c2ccc(-c3ccc(-c4noc(C)n4)cc3)c(Cl)c2)cc1N1CCN(C)CC1", "melting point": "93 to 95 °C"}
{"compound-smiles": "O=C(O)CCc1cn(Cc2ccc(OCc3ccc(-c4ccccc4)nc3)cc2)cc1-c1ccccc1", "melting point": "185 to 186 °C"}
{"compound-smiles": "CCCc1cc(Cl)c2oc(Cc3ccc(OC)cc3)c(C)c2c1OC(=O)OCC", "melting point": "99 to 100 °C"}
{"compound-smiles": "N#CC1(NC(=O)c2ccccc2C(=O)O)CCCCC1", "melting point": "154 to 156 °C"}
{"compound-smiles": "CCCC(=O)c1cnc2c(OC)cccc2c1Nc1ccc(OC)cc1C", "melting point": "161 to 163 °C"}

====

Each entry below lists one item and its recorded melting point value.

{"compound": "CCc1nc2c(cnn2CC)c(NC2CCOCC2)c1CNC(=O)c1cccc(C(=O)NCc2ccc(OC)c(-c3cccc(CN4CC(C)NC(C)C4)c3)c2)c1 (configuration not stated)", "melting point": "127 to 129 °C"}
{"compound": "CCOc1cc(C(=O)CCCC2CCCCC2)c(OC)cc1C", "melting point": "37 to 38 °C"}
{"compound": "O=C1NC(=O)C(c2c3n(c4ccccc24)CCC(CO)C3)=C1c1cccc(C(F)(F)F)c1 (configuration not stated)", "melting point": "77 to 79 °C"}
{"compound": "COc1cc(Nc2c(C#N)cnc3cc(OCC4CCN(C)CC4)ccc23)c(Cl)cc1Cl", "melting point": "191 to 193 °C"}
{"compound": "Cc1c(-c2ccccc2)oc2c(C=CC(=O)O)cccc2c1=O", "melting point": "226 to 229 °C"}
{"compound": "Nc1nc(-c2nn(Cc3ccccc3F)c3ncccc23)nc(N)c1Cc1ccccc1", "melting point": "193 °C"}
{"compound": "O=c1nc(-c2ccnc(C3CNCCO3)c2)sc2ccccc12 (configuration not stated)", "melting point": "157 to 158 °C"}

====

Each entry below lists one item and its recorded melting point value.

{"compound": "CNC(=O)C1CC(C)(C)Oc2ccc([N+](=O)[O-])cc21 (configuration not stated)", "melting point": "161 to 162 °C"}
{"compound": "COc1cc(-c2nc3ccccc3n2Cc2ccccc2I)cc(OC)c1OC", "melting point": "179 °C"}
{"compound": "Cn1cc(Br)cc(Nc2ccc(OC3CN(C(=O)OC(C)(C)C)C3)cn2)c1=O", "melting point": "120 to 121 °C"}
{"compound": "CN1C(=O)C2(CCN(CC(O)C3COc4ccccc4O3)CC2)c2ccccc21 (configuration not stated)", "melting point": "113 to 128 °C"}
{"compound": "COc1ccc(Br)c2nc(SCc3ccccc3)nn12", "melting point": "78 to 79 °C"}
{"compound": "CC(C)(C=C=CC(=O)O)c1ccc(Cl)cc1", "melting point": "64 to 67 °C"}
{"compound": "C(=C\\c1cccs1)/c1nc(COc2ccc(CCCn3ccnc3)cc2)co1", "melting point": "131 to 132 °C"}

====

Each entry below lists one item and its recorded melting point value.
outcome-measure: melting point

{"molecule": "C[C@@H]1Cc2cc(N3C[C@H](CN)OC3=O)ccc2N1C(=O)OCc1ccccc1", "obs-value": "120 to 122 °C"}
{"molecule": "CC(C)(C)OC(=O)NCCNC(=O)c1ccc(CO)cc1", "obs-value": "117 to 119 °C"}
{"molecule": "CCOCCOc1ccc(CCNC(=O)/C=C/c2cccs2)cc1S(=O)(=O)NC(=O)NC", "obs-value": "65 °C"}
{"molecule": "Clc1nsnc1N1CCOCC1", "obs-value": "43 to 45 °C"}
{"molecule": "O=C(O)COc1cc2c(c(Cl)c1Cl)C(O)C1(CCCC1)C2 (configuration not stated)", "obs-value": "135 °C"}
{"molecule": "C=C(C)C=COCC1CCn2c(nc3ccccc32)S1 (configuration not stated)", "obs-value": "56 to 60 °C"}
{"molecule": "Nc1ncnc2c1cnn2C1OC(CO)C(O)C1O (configuration not stated)", "obs-value": "253 °C"}
{"molecule": "CC(=O)Oc1ccc(-c2cnc(-c3ccccc3)nc2Cl)cc1OC(C)=O", "obs-value": "152 to 153 °C"}
{"molecule": "Nc1cccc(N)c1Oc1ccccc1", "obs-value": "110 to 111 °C"}
{"molecule": "COc1cc(OC)c(NC(=O)[C@H]2[C@H](c3ccccc3)C2(C)C)cc1Cl (relative stereo)", "obs-value": "160 to 162 °C"}
{"molecule": "Cc1oc(-c2ccccc2)nc1COc1ccc(Cn2cc(CC(=O)O)c(-c3ccccc3)n2)cn1", "obs-value": "144 to 145 °C"}
{"molecule": "CC(C)(C)C(=O)SC[C@H](NC(=O)C(C)(C)S)C(=O)O", "obs-value": "115 to 117 °C"}
{"molecule": "C[C@H](CO)Nc1nc(SCc2ccno2)nc2[nH]c(=O)cnc12", "obs-value": "191 to 194 °C"}
{"molecule": "CC(=O)NNc1ccc(N)cc1", "obs-value": "130 to 140 °C"}
{"molecule": "Cc1cnc2c(N)cccc2c1Cl", "obs-value": "112 to 114 °C"}
{"molecule": "O=C1CCc2ncc3cc(Cl)c(Cl)cc3c2N1", "obs-value": "350 °C"}
{"molecule": "CCOC(=O)C=Cc1ccc2c(c1)c1cc(C=CC(=O)OCC)ccc1n2CC", "obs-value": "164 to 168 °C"}
{"molecule": "CCn1nc(-c2nc(C(=O)O)c(NCc3ccc(OC)cc3)nc2-c2ccccc2)ccc1=O", "obs-value": "> 250 °C"}
{"molecule": "COC(=O)COc1ccc2c(c1)S(=O)(=O)C=C(c1c(O)c3cc(F)ccc3n(Cc3ccc(F)cc3)c1=O)N2", "obs-value": "200 to 207 °C"}
{"molecule": "C=CCc1cc(OCCOC)ccc1OCC1(O)CN2CCC1CC2 (configuration not stated)", "obs-value": "58 to 60 °C"}
{"molecule": "COC(=O)c1ccc(OCCCN2CCN(c3ccc(Cl)nn3)CC2)cc1", "obs-value": "128 to 130 °C"}
{"molecule": "CC12CCC(=O)C(CSc3ccccc3)=C1CCC1C2CCC2(C)C1CCC2(C)O (configuration not stated)", "obs-value": "123 to 130 °C"}
{"molecule": "COc1cc(C=C2COCC3=C2N=C2SCCN2C3c2cc(OC)c(OC)c(OC)c2)cc(OC)c1OC (configuration not stated)", "obs-value": "153 to 155 °C"}
{"molecule": "CC(=O)NC(C)(C)c1ccc(CCl)cc1", "obs-value": "101 to 103 °C"}
{"molecule": "c1ccc2c(c1)NCCc1nncn1-2", "obs-value": "162 to 165 °C"}
{"molecule": "O=C(c1ccccc1)c1cc(Cl)ccc1N=C=S", "obs-value": "63 to 65 °C"}
{"molecule": "Cc1ccccc1Sc1c(O)cc(-c2ccccc2)oc1=O", "obs-value": "210 to 211 °C"}
{"molecule": "Cc1cc(-c2nc3cccnn3c2-c2ccnc(NC(=O)c3cnccn3)c2)ccc1F", "obs-value": "229 to 230 °C"}
{"molecule": "O=[PH](c1ccc(N2CCCC2)cc1)c1ccc(N2CCCC2)cc1", "obs-value": "199 °C"}
{"molecule": "CCCSc1cc(C(=O)CCC(=O)c2cc(OC)c(OC)c(OC)c2)cc(OC)c1OCc1ccccc1", "obs-value": "114 to 115 °C"}
{"molecule": "C=C(C)C(=O)OCCCOc1ccc(-c2cc(OC(=O)C(=C)C)cc(-c3ccc(OCCOC(=O)C(=C)C)cc3)c2)cc1F", "obs-value": "70 °C"}
{"molecule": "CN(CC(=O)OCCCCNc1cccc2c1C(=O)c1ccccc1C2=O)C(=O)OC(C)(C)C", "obs-value": "90 °C"}
